List of interaction score values.
- TESTED ON: T1, P2mSN
- T1 chain: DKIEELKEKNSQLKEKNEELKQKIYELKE
- ASSAY EXPLANATION: two-hybrid library CCNG1;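 note: natural log of median RNA to DNA barcode read ratio; higher means stronger binding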
Lab note: write the figure by itself, no unit.

BINDER: DEIRQLEQENSQLERENQRLEQEIYQLER [P1mSN]
interaction score: 1.73
--
BINDER: DENQSLEQEISQLEQEIQQLEQKNSELKY [P11mSN]
interaction score: -1.32
--
BINDER: DKNSQLKEENSQLEEKIEQLKEKIQELKY [P10mSN]
interaction score: -1.62
--
BINDER: DKNEQLKEKISELKEKIEQLKEENQSLEY [P12mSN]
interaction score: -1.65

Attention now shifts to the item below.
// query interaction score lookup needed for DKIEELKEKNSQLKEKNEELKQKIYELKE [P2mSN] , thanks.
// result -1.97
